- System: casting-induced atrophy of the tibialis anterior and medial gastrocnemius muscles
- Measurement description: mouse casting model of skeletal muscle atrophy
- Assay type: in vivo
- Condition: 3.0 mg/kg/d subcutaneously once daily, fourteen days, casted right hind leg, male mice
% inhibition of atrophy tibialis anterior muscle overview
Please state the figure in %; there is no need to write the unit.

The following molecules have reported results that may help.
CC#CCC(C)[C@H](O)/C=C/[C@@H]1[C@H]2C/C(=C/CCCC(=O)O)C[C@H]2C[C@H]1O (stereo partly shown) [Iloprost] :: 11
CC#CCC(C)[C@H](O)/C=C/[C@@H]1[C@H]2c3cccc(CCCC(=O)O)c3O[C@H]2C[C@H]1O (mixture of isomers) [Beraprost] :: 5

Consider the record given below.
Quick one: % inhibition of atrophy tibialis anterior muscle for CCCCC[C@H](O)/C=C/[C@@H]1[C@H]2C/C(=C/CCCC(=O)O)C[C@H]2C[C@H]1O [Carbaprostacyclin] ?
8

---

% inhibition of atrophy medial gastrocnemius muscle overview
- Tested on: casting-induced atrophy of the tibialis anterior and medial gastrocnemius muscles
- Measurement description: mouse casting model of skeletal muscle atrophy
- Type: in vivo
- Condition: 0.3 mg/kg/d subcutaneously once daily, fourteen days, casted right hind leg, male mice
Marks after values point to notes of the source that are not given here.

Quick one: % inhibition of atrophy medial gastrocnemius muscle for CCCCC[C@H](O)/C=C/[C@H]1[C@H](O)C[C@]2(C)C/C(=C\CCCC(=O)O)C[C@H]12 ?
25* %

Now consider CC#CCC(C)[C@H](O)/C=C/[C@@H]1[C@H]2c3cccc(CCCC(=O)O)c3O[C@H]2C[C@H]1O (mixture of isomers) and answer again.
46* %

Now consider CCCCC[C@H](O)/C=C/[C@@H]1[C@H]2C/C(=C/CCCC(=O)O)C[C@H]2C[C@H]1O and answer again.
1%

Now consider CC#CCC(C)[C@H](O)/C=C/[C@@H]1[C@H]2C/C(=C/CCCC(=O)O)C[C@H]2C[C@H]1O (stereo partly shown) and answer again.
42* %
